Recorded IC50, one value per entry.
- EXPERIMENT: Toxicity in C57BL/6J mouse splenic lymphocytes after 72 hrs by Alamar blue Assay
- Format: cell-based
- PROTOCOL_CONDITIONS: splenic lymphocyte
Report the value in µM with no unit label.

# SMILES_STR, IC50 [µM]
records = [
    ("CCCCCCCCc1cc(Cc2ccc(Cl)cc2)c(/C=C2\\N=C(c3ccc[nH]3)C=C2OC)[nH]1", 1.1),
]

From here, focus on the item given below.
Problem: Look at this compound and give its reported IC50. CCCCCCCCCCCC1=N/C(=C\c2[nH]c(-c3ccccc3)cc2OC)C=C1
Solution: 3.58

* * *

Recorded pIC50, one value per entry.
- System: Plasmodium falciparum
- EXPERIMENT: Antimalarial activity multidrug-resistant Plasmodium falciparum Dd2 after 72 hrs by SYBR Green I based fluorescence assay
- Format: functional, organism-based
- PROTOCOL_CONDITIONS: Dd2, 72 h
Note: pIC50 values are expressed as the negative base-10 logarithm of concentration in M.

Example cases with answers are listed next.
# SMILES_STR, SUBJECT_OF_TEST, pIC50
records = [
    ("COC1=CC(c2ccc[nH]2)=N/C1=C\\c1[nH]c(Cc2ccc(Cl)cc2)cc1CCC1CCCCC1", "Plasmodium falciparum", 8.54),
    ("COC1=CC(c2ccc[nH]2)=N/C1=C\\c1[nH]c(C)cc1C", "Plasmodium falciparum", 5.09),
]

Problem: Look at this compound and give its reported pIC50. CCCCCCc1cc(CCC)c(/C=C2\N=C(c3ccc[nH]3)C=C2OC)[nH]1
Solution: 8.40

Problem: Look at this compound and give its reported pIC50. CCCCCCCCc1cc(CCCCCCC)[nH]c1/C=C1\N=C(c2ccc[nH]2)C=C1OC
Solution: 8.54

Problem: Look at this compound and give its reported pIC50. COC1=CC(c2ccc[nH]2)=N/C1=C\c1[nH]c(Cc2ccc(Br)cc2)cc1Cc1ccc(Cl)cc1
Solution: 8.11

* * *

Recorded IC50, one value per entry.
- Tested on: Plasmodium falciparum
- EXPERIMENT: Antimalarial activity multidrug-resistant Plasmodium falciparum Dd2 after 72 hrs by SYBR Green I based fluorescence assay
- Format: functional, organism-based
- PROTOCOL_CONDITIONS: Dd2, 72 h
Report the value in nM with no unit label.

Problem: Look at this compound and give its reported IC50. CCCCCCCc1cc(Cc2ccc(Cl)cc2)c(/C=C2\N=C(c3ccc[nH]3)C=C2OC)[nH]1
Solution: 2.2

Problem: Look at this compound and give its reported IC50. COC1=CC(c2ccc[nH]2)=N/C1=C\c1[nH]c(Cc2ccccc2Cl)cc1Cc1ccccc1Cl
Solution: 4.9

Problem: Look at this compound and give its reported IC50. CCCCc1ccc(/C=C2\N=C(c3ccc[nH]3)C=C2OC)[nH]1
Solution: 1590

Problem: Look at this compound and give its reported IC50. COC1=CC(c2ccc[nH]2)=N/C1=C\c1[nH]c(Cc2ccc(Cl)cc2Cl)cc1Cc1ccc(Cl)cc1Cl
Solution: 11

* * *

- Tested on: Plasmodium falciparum
- EXPERIMENT: Antimalarial activity multidrug-resistant Plasmodium falciparum Dd2 after 72 hrs by SYBR Green I based fluorescence assay
- Assay type: functional, organism-based
- PROTOCOL_CONDITIONS: Dd2, 72 h
METRIC_NAME: log10 IC50 (log10 of the value in nM)
Log10 applied to IC50; unit prior to transform: nM.

Example cases with answers are listed next.
# SMILES_STR, log10 IC50
data = [
    ("CCCc1cc(CCC2CCCCC2)c(/C=C2\\N=C(c3ccc[nH]3)C=C2OC)[nH]1", 0.11),
    ("CCc1cc(Cc2ccc(Cl)cc2)c(/C=C2\\N=C(c3ccc[nH]3)C=C2OC)[nH]1", 0.79),
]

Problem: Look at this molecule and give its reported log10 IC50. CCCCCCCCCCCCCCCCc1ccc(/C=C2\N=C(c3ccc[nH]3)C=C2OC)[nH]1
Solution: 2.60

Problem: Look at this molecule and give its reported log10 IC50. COC1=CC(c2ccc[nH]2)=N/C1=C\c1[nH]c(CCC2CCCCC2)cc1CCC1CCCCC1
Solution: 0.54

Problem: Look at this molecule and give its reported log10 IC50. CCCCCCCCCCCc1ccc(/C=C2\N=C(c3ccco3)C=C2OC)[nH]1
Solution: 3.58

Problem: Look at this molecule and give its reported log10 IC50. COC1=CC(c2ccc[nH]2)=N/C1=C\c1[nH]ccc1CC(C)C
Solution: 2.36

Problem: Look at this molecule and give its reported log10 IC50. COC1=CC(c2ccc[nH]2)=N/C1=C\c1[nH]c(Cc2ccc(F)cc2)cc1Cc1ccc(Cl)cc1
Solution: 0.79

Problem: Look at this molecule and give its reported log10 IC50. COC1=CC(c2ccc[nH]2)=N/C1=C\c1[nH]c(Cc2ccc(Br)cc2)cc1Cc1ccc(Br)cc1
Solution: 1.04

Problem: Look at this molecule and give its reported log10 IC50. CCCCCCc1cc[nH]c1/C=C1\N=C(c2ccc[nH]2)C=C1OC
Solution: 0.85
